- Tested on: MS2 coat protein
- ASSAY NOTES: apparent KD of MS2 coat protein; designed switch direction (-1 OFF switch, 1 ON switch): -1; higher = weaker reporter binding
- RUN PARAMETERS: input ligand: none
Would you please tag the item True when its apparent KD of MS2 coat protein is 50 nM or above, and False when it is below?

{"columns": ["SEQUENCE STRING", "ASSIGNED LABEL"],
 "data": [
  ["AAUUUACAUGAGGAUCACCCAUGUGAGGAUAUAUAAAUAUAUAUGUUAUUGUAUGUUUGUAGAAGGCGCGUGAU [JR_Exc1_Sub031] (Eterna round: R97, puzzle: Exclusion 1)", "True"]
]}

IN: Check if apparent KD of MS2 coat protein >= 50 nM (inclusive). Item: AAAUAACAAGCAAUAAACCACAUGAGGAUCACCCAUGUAAAGGGUGAAUCGUCCACCCAAAAAAAAAAAAAAAAAUA [Mat - Sensor v2 - Eli mod - 147] (Eterna round: R96, puzzle: Sensor v2, turn-off variant)
OUT: True

IN: Check if apparent KD of MS2 coat protein >= 50 nM (inclusive). Item: UUAAAUCAUGUAGGAUAUGCAUAGCGAAGCUAUGCAGAAGGACAUGAGGAUCACCCAUGUGCUUGCGUCCGCGUACGGAUGCUA [Mat - Exclusion NG 1 - Mod of JL - D67] (Eterna round: R96, puzzle: Exclusion NG 1)
OUT: True

----------
- System: MS2 coat protein
- ASSAY NOTES: apparent KD of MS2 coat protein; designed switch direction (-1 OFF switch, 1 ON switch): 1; higher = weaker reporter binding
- RUN PARAMETERS: input ligand: microRNA oligo, concentration not stated
ATTRIBUTE MEASURED: apparent KD of MS2 coat protein (nM)
Supply the numeric figure in nM, leaving out any unit text.

{"columns": ["SEQUENCE STRING", "TEST VALUE"],
 "data": [
  ["GGUAGGUUACUACCAGACAUGAGGAUCACCCAUGUAAGUGGGAAGGAUAUGGUACCUUUUAGGUACCAGAAGGUCCAUAUAGUU [JL SSNG3 1.43] (Eterna round: R96, puzzle: Same State NG 3)", 429],
  ["CGCUGUCACGCAGGAUAUGCAUUGGAUUACAAUGCAGAAGGGCGAUCACAUGAGGAUCACCCAUGUGUAGACAGUGAAGAAGAG [MOD2 JMF Solution 3] (Eterna round: R96, puzzle: Same State NG 1)", 479],
  ["AGCAGAGAAAUAGGAUAUGGCUGAGACAUGACGGCGGUACAUGAGGAUCACCCAUGUCCGCAAAGCCAGAAGGGUUUUGAAUGU [Ticecexe] (Eterna round: R96, puzzle: Same State NG 2)", 16.5],
  ["GUAGCAUACCGAGGAUAUUCAUAUUAACAUGAGGAUCACCCAUGUUGGCCACAUUAGUGGCCUUGGGAGAAGGCGGAAUGCUAC [Xeonanis - 20 Mod38] (Eterna round: R96, puzzle: Same State NG 2)", 107],
  ["GAUCGUUUGAUAGGAUAUCGCUAUACAUGAGGAUCACCCAUGUUUACCACGCUGGUUUUUCAUACCGAGAAGGAUUCUGAUGAC [salish99_SSNG02_r04_007] (Eterna round: R96, puzzle: Same State NG 2)", 15.5],
  ["AUAUGAGGAGCAGGAUAUGCGGAGAAGAAAGAAGCAGAAGGGCUCAUGGGACGACAUGAGGAUCACCCAUGUGCUCCGCGAUGA [AK SSNG1-V2-4] (Eterna round: R96, puzzle: Same State NG 1)", 29.5]
]}

apparent KD of MS2 coat protein on MS2 coat protein for GUAGCAUACCGAGGAUAUUCAUAUAAUAACAUGAGGAUCACCCAUGUUUAUAGGCGAAAGCCUUGGGAGAAGGCGGAAUGCUAC [Xeonanis - 20 Mod63] (Eterna round: R96, puzzle: Same State NG 2) is 12.3

apparent KD of MS2 coat protein on MS2 coat protein for UGCCUGAGUCGAGGAUAUUAUGGAUCAAUUAAUACAUGAGGAUCACCCAUGUAAUUAAUUUAACAUGAGAAGGCGACUCAGGCA [SSNG2/10-A2] (Eterna round: R96, puzzle: Same State NG 2) is 4.69

apparent KD of MS2 coat protein on MS2 coat protein for GCGGAGAGGUCAGGAUAUCCAUGGAAGACACAUGAGGAUCACCCAUGUGGGAGGGAAACCAGGAGGGAGAAGGGACCGGGACGC [ssng2 v2 c] (Eterna round: R96, puzzle: Same State NG 2) is 10.3

----------
- Tested on: MS2 coat protein
- ASSAY NOTES: apparent KD of MS2 coat protein; designed switch direction (-1 OFF switch, 1 ON switch): 1; higher = weaker reporter binding
- RUN PARAMETERS: input ligand: FMN 200 uM
ATTRIBUTE MEASURED: apparent KD of MS2 coat protein

{"columns": ["SEQUENCE STRING", "TEST VALUE"],
 "data": [
  ["AAAGGAUGAUUAUACAUGAGGAUCACCCAUGUAAGUAAUACUAAGGAUAUGUGACUUAAUUGUUUACAGAAGGUAGGUUCAUGA [AK SSNG3-V2-1.1] (Eterna round: R96, puzzle: Same State NG 3)", "58.8 nM"],
  ["ACCCAAAGUAUAUGGGAACAAGCUUUUUAACAUGAGGAUCACCCAUGUACUCGUCUUAUAAGCAGUCGAAAGACUGC [hsa-mir-208a sensor: 100] (Eterna round: R96, puzzle: Sensor for hsa-mir-208a)", "557 nM"],
  ["CCGUUCAAUAAACAUGAGGAUCACCCAUGUGAUAAUAAGGGUGAGGAUAUGCAUCUGAAACAGGUGCAGAAGGCAUAAGAGCGG [JL SSNG3 3.91] (Eterna round: R96, puzzle: Same State NG 3)", "327 nM"]
]}

Attention now turns to another entry.
The recorded apparent KD of MS2 coat protein for entry CGCUGUCACGCAGGAUAUGCAUUGGAUUACAAUGCAGAAGGGCGAUCACAUGAGGAUCACCCAUGUGUAGACAGUGAAGAAGAG [MOD2 JMF Solution 3] (Eterna round: R96, puzzle: Same State NG 1) equals 46.1 nM

----------
Each record here notes measured apparent KD of MS2 coat protein.
- Test system: MS2 coat protein
- ASSAY NOTES: apparent KD of MS2 coat protein, switch OFF state (with FMN for OFF switches, without FMN for ON switches); designed switch direction (-1 OFF switch, 1 ON switch): 1; higher = weaker reporter binding
- RUN PARAMETERS: FMN input: 0 or 200 uM; Eterna round: R93 (includes R88 designs)
Supply the numeric figure in µM, leaving out any unit text.

apparent KD of MS2 coat protein on MS2 coat protein for AAAAAACAUGAGGAUCACCCAUGUCUUCGGACAUGAGGAUAUGUACAGACUUCGGUCUGUACAGAAGGCAUGAAAA [SS1 - 1013] is 0.0395

apparent KD of MS2 coat protein on MS2 coat protein for AAAGAAAAACUAGAGGAUAUCUGAAUGGUAACAUGAGGAUCACCCAUGUGAAGAAAGGAACAUGAGGAGAAGGCUAGAAGAAAAA [JL Nando mod 17] is 0.0354

apparent KD of MS2 coat protein on MS2 coat protein for AGAAAACAUGAGGAUCACCCAUGUGACAAUAUGGGAGGAUAUACGAACACGAAAGUCGAAGUAGAAGGCCUAAAGA [Garnet 53] is 0.0757

apparent KD of MS2 coat protein on MS2 coat protein for AACAAUCUAUCUGAGGAUAUAUGUCAAAAGACAUGAGGAUCACCCAUGUAAAAACAUGAAAAGACAUAGAAGGCAGAUAGAUUGA [SS2: 1133] is 0.0351

apparent KD of MS2 coat protein on MS2 coat protein for AAAAAACAUGAGGAUCACCCAUGUAACACUCAUGUAGGAUAUACAAAAAAAAAAAAAAAAGUAGAAGGACAAAAAA [Omei A variation 3] is 0.293

apparent KD of MS2 coat protein on MS2 coat protein for AAGAAACAUGAGGAUCACCCAUGUACCCAAAAGGGAGGAUAUGGAAAAGAAAGAAAGAAACCAGAAGGCCCAUGAA [Artabanus the Hyrcanian] is 0.0222

----------
- System: MS2 coat protein
- ASSAY NOTES: apparent KD of MS2 coat protein; higher = weaker reporter binding
- RUN PARAMETERS: Eterna round: R107; input ligand: none
ATTRIBUTE MEASURED: apparent KD of MS2 coat protein (µM)
Supply the numeric figure in µM, leaving out any unit text.

{"columns": ["SEQUENCE STRING", "ATTRIBUTE MEASURED", "TEST VALUE"],
 "data": [
  ["GAUUACAUGAGGAUCACCCAUGUAACUGAAGGAGCGGUAAUAAAGCCAGGUAGGUCGCAGAACGACAUGUGGUUCAUCCAUGUAA [#15 Exclusion - Arginine A]", "apparent KD of MS2 coat protein", 0.0391],
  ["AACAUGAGGAUCACCCAUGUCCCUCCCUCCCGAGGACCGGUACGGCCGCCACUCGCCCUCCCUCCCUAAGAAAGAAAGAAGAAGA [Same State - Trypopjan A]", "apparent KD of MS2 coat protein", 0.0379]
]}

apparent KD of MS2 coat protein on MS2 coat protein for AUAACAUGAGGAUCACCCAUGUAAGCUGAAGGAGCGGACGAAAGUCCAGGUAGGUCGCAGCGCUCCUUCACCUCAUGAGAAGGAG [(M1)-(M2)-(Arg1)-(Arg2)-(A)'-(M)'-(A)''_Design2] is 0.023

Cited source: the supplement of paper PMC9170038
